Assayed target: recombinant DPY-31 from T. circumcincta (Teladorsagia circumcincta, UniProt A0A0C5PRQ1)
Sequence (A0A0C5PRQ1 151-614): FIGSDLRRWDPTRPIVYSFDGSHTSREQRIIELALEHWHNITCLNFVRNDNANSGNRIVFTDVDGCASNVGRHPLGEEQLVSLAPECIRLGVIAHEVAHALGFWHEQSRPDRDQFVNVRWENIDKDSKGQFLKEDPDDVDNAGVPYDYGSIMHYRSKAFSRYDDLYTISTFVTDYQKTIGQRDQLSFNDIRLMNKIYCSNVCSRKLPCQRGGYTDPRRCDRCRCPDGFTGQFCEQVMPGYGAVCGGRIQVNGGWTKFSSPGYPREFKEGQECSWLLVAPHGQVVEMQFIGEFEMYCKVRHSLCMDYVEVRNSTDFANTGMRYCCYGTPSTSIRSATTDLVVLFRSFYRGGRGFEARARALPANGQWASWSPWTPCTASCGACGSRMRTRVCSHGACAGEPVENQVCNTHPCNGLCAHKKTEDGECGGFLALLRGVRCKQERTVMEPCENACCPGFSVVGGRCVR
Method notes: rDPY-31 absorbance assay (astacin assay, Suc-Ala-Ala-Ala-pNA substrate)
Condition info: T. circumcincta enzyme; species not given; read-out: IC50 rDPY-31 (in vitro absorbance assay)
pIC50: −log10 of the molar value.
Property measured: pIC50

# lookup: pIC50 of COC(=O)C1CCCN1C(=O)C(C)CP(=O)(O)C(Cc1ccccc1)NC(=O)C(CCCCN)NC(=O)C1CCCN1C(=O)OCc1ccccc1 (stereo not shown) [Compound 1]
< 3.30
